Molecular target: hM5 (Homo sapiens)
Construct: expressed in transfected cells
Sequence (P08912 1-532): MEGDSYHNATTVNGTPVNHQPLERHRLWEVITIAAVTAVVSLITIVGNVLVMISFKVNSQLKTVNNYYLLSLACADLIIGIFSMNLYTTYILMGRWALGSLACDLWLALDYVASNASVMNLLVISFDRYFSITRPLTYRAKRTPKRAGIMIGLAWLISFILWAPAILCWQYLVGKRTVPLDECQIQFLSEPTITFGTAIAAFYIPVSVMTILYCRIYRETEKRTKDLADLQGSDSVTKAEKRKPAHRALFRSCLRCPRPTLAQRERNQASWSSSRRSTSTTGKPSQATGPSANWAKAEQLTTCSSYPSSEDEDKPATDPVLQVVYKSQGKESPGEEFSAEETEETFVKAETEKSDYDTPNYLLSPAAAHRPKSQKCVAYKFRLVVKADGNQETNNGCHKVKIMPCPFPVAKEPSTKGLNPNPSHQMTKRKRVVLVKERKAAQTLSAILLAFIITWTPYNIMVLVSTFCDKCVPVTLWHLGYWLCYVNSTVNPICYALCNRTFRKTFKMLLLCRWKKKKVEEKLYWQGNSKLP
Assay: Calcium mobilization concentration-response (IC50 vs EC80 acetylcholine), CHO hM5
Format: cell-based
Conditions: CELL LINE hM5; vs EC80 acetylcholine; read-out: IC50
ASSAY METRIC: pIC50
Numbers only, as −log10 of the molar value.

Solved entries (count: 5):
- SMI: "Cc1cc2ncccc2cc1C1CCN(S(=O)(=O)c2cnn(C)c2C)CC1"
  pIC50: 7.49
- SMI: "[2H]C1([2H])CC(c2cn3ncnc3cc2F)CC([2H])([2H])N1S(=O)(=O)c1cnc2sccn12"
  pIC50: 6.90
- SMI: "Cc1cc2ncnn2cc1C1CCN(S(=O)(=O)c2cnn(C)c2C#N)CC1"
  pIC50: 7.74
- SMI: "Cc1cc2ncnn2cc1C1(F)CCN(S(=O)(=O)c2cn(C)nn2)CC1"
  pIC50: 5.67
- SMI: "O=S(=O)(c1cnn2ccccc12)N1CCC(c2cn3ncnc3cc2F)CC1"
  pIC50: 6.77

Would you be so kind as to report pIC50 for each listed record?
1. Cc1ncc(S(=O)(=O)N2CCC(c3cnc(N(C)C)cc3C)CC2)o1
2. Cc1ncc(S(=O)(=O)N2CCC(c3cn4ncnc4cc3C(F)F)CC2)o1
3. Cn1ncc(S(=O)(=O)N2CCC(c3cn4ncnc4cc3Cl)CC2)c1CC#N
4. Cc1ncc(S(=O)(=O)N2CCC(c3cn4ccnc4cc3Cl)CC2)s1
5. Cc1cc2ncccc2cc1C1CCN(S(=O)(=O)c2c(Cl)nn3ccccc23)CC1
6. Cc1cc2ncnn2cc1C1CCN(S(=O)(=O)c2nncn2C)CC1
7. O=S(=O)(c1cnn2ccccc12)N1CCC(c2cn3ncnc3cc2Cl)CC1

A.
[7.03, 6.85, 7.24, 6.28, 5.87, 6.31, 7.82]

Would you be so kind as to report pIC50 for each listed record?
1. Cn1ncc(S(=O)(=O)N2CCC(F)(c3cn4ncnc4cc3F)CC2)c1C#N
2. Cc1cc2ncnn2cc1C1=C(C#N)CN(S(=O)(=O)c2cnn(C)c2Cl)CC1

A.
1: 5.94; 2: 5.79

Would you be so kind as to report pIC50 for each listed record?
1. [2H]C([2H])([2H])Oc1c(S(=O)(=O)N2CCC(c3cn4ncnc4cc3F)CC2)cnn1C
2. Cc1c(C2CCN(S(=O)(=O)c3cnn(C)c3CC#N)CC2)cn2ncnc2c1F
3. Cn1ncc(S(=O)(=O)N2CCC(c3cn4ncnc4cc3F)CC2)c1C#N
4. Cc1cc2ncccc2cc1C1CCN(S(=O)(=O)c2cnc3ccccn23)CC1

A.
[6.18, 6.79, 7.07, 6.35]

Would you be so kind as to report pIC50 for each listed record?
1. Cc1ncc(S(=O)(=O)N2CCC(F)(c3cn4ncnc4cc3C)CC2)o1
2. Cc1cc2ncnn2cc1C1CCN(S(=O)(=O)c2cnn(C)c2-c2scnc2C)CC1
3. [2H]C1([2H])CC(c2cn3ncnc3cc2Cl)CC([2H])([2H])N1S(=O)(=O)c1cnn(C)c1CC#N
4. [2H]C1([2H])CC(c2cn3ncnc3cc2C)CC([2H])([2H])N1S(=O)(=O)c1cnn(C)c1C#N

A.
1: 5.50; 2: 6.09; 3: 7.37; 4: 8.00

----------
molecular target: hM5 (Homo sapiens); construct: expressed in transfected cells; experiment: Calcium mobilization concentration-response (IC50 vs EC80 acetylcholine), CHO hM5; type: cell-based; settings: CELL LINE hM5; calcium mobilization, EC80 acetylcholine addition; read-out: IC50
I'd be grateful if you could share measured IC50 for these entries.

- COMPOUND: "Cc1cc(C#N)cnc1C1CCN(S(=O)(=O)c2ccc3c(c2)CCO3)CC1"
  SYSTEM: "hM5 (Homo sapiens)"
  IC50: "> 10000 nM"
- COMPOUND: "Cc1ncc(S(=O)(=O)N2CCC(c3ccc4ncnn4c3)CC2)n1C"
  SYSTEM: "hM5 (Homo sapiens)"
  IC50: "2000 nM"
- COMPOUND: "Cc1cc2ncnn2cc1C1CCN(S(=O)(=O)c2ccc3ncn(C)c3c2)CC1"
  SYSTEM: "hM5 (Homo sapiens)"
  IC50: "105 nM"

Would you be so kind as to report IC50 for each listed record?
1. Cc1cc2ncnn2cc1C1CCN(S(=O)(=O)c2cnn3c2CCC3)C(C)C1 (stereo not drawn)
2. Cc1cc2nccn2cc1C1CCN(S(=O)(=O)c2ccc3ncsc3c2)CC1
3. Cc1cc(C#N)cnc1C1CCN(S(=O)(=O)c2cnn(C)c2C)CC1

A.
1. 618 nM
2. 6000 nM
3. > 10000 nM

Would you be so kind as to report IC50 for each listed record?
1. Cc1cc2ncnn2cc1C1CCN(S(=O)(=O)c2ccc3c(cnn3C)c2)CC1
2. CCc1cc2ncnn2cc1C1CCN(S(=O)(=O)c2c(Cl)nn(C)c2C)CC1
3. Cc1c(C2CCN(S(=O)(=O)c3cnc4ccccn34)CC2)cn2ncnc2c1F

A.
["> 10000 nM", "37 nM", "50 nM"]

----------
I'd be grateful if you could share measured pIC50 for these entries.
target: hM5 (Homo sapiens); construct: expressed in transfected cells; experiment: Calcium mobilization concentration-response (IC50 vs EC80 acetylcholine), CHO hM5; type: cell-based; conditions: CELL LINE hM5; calcium mobilization, EC80 acetylcholine addition; read-out: IC50
Numbers only, as −log10 of the molar value.

Solved entries (count: 8):
- COMPOUND: "Cc1c(C2CCN(S(=O)(=O)c3cnc4n3CCCC4)CC2)cn2ncnc2c1F [Compound 349]"
  SYSTEM: "hM5 (Homo sapiens)"
  pIC50: 7.77
- COMPOUND: "Cc1c(S(=O)(=O)N2CC=C(c3cc4c(cc3Cl)N(C)CCO4)CC2)cnn1C [Compound 376]"
  SYSTEM: "hM5 (Homo sapiens)"
  pIC50: 5.84
- COMPOUND: "O=S(=O)(c1cnn2c1CCCC2)N1CCC(c2ccc3ncnn3c2)CC1 [Compound 287]"
  SYSTEM: "hM5 (Homo sapiens)"
  pIC50: 6.63
- COMPOUND: "CCc1cc2ncnn2cc1C1CCN(S(=O)(=O)c2cnn(C)c2C)CC1 [Compound 297]"
  SYSTEM: "hM5 (Homo sapiens)"
  pIC50: 7.14
- COMPOUND: "Cn1ncc(S(=O)(=O)N2CCC(c3cn4ncnc4cc3F)CC2)c1C(F)F [Compound 231]"
  SYSTEM: "hM5 (Homo sapiens)"
  pIC50: 6.75
- COMPOUND: "Cc1c(S(=O)(=O)N2CCC(c3cn4ncnc4cc3C(F)(F)F)CC2)c(Cl)nn1C [Compound 341]"
  SYSTEM: "hM5 (Homo sapiens)"
  pIC50: 6.95
- COMPOUND: "O=S(=O)(c1cnc2ccccn12)N1CCC(c2cn3ncnc3cc2C(F)(F)F)CC1 [Compound 338]"
  SYSTEM: "hM5 (Homo sapiens)"
  pIC50: 6.79
- COMPOUND: "Cc1cc2ncnn2cc1C1CCN(S(=O)(=O)c2cnn(C)c2Cl)C(C)C1 (centres unmarked) [Compound 361]"
  SYSTEM: "hM5 (Homo sapiens)"
  pIC50: 5.83

Would you be so kind as to report pIC50 for each listed record?
1. Cc1ccncc1C1CCN(S(=O)(=O)c2cnn(C)c2C)CC1 [Compound 384]
2. Cc1cc2ncnn2cc1C1CCN(S(=O)(=O)c2c(C)nn(C)c2C(F)(F)F)CC1 [Compound 220]
3. O=S(=O)(c1cnn2c1NCCC2)N1CCC(c2cn3ncnc3cc2F)CC1 [Compound 253]

A.
5.24
7.42
7.24

----------
biological target: hM5 (Homo sapiens); construct: expressed in transfected cells; test: Calcium mobilization concentration-response (IC50 vs EC80 acetylcholine), CHO hM5; type: cell-based; conditions: CELL LINE hM5; vs EC80 acetylcholine; read-out: IC50
I'd be grateful if you could share measured IC50 for these entries.
Answers are plain numbers, in nM.

- SMI: "COc1c(S(=O)(=O)N2CCC(c3cn4ncnc4cc3Cl)CC2)cnn1C"
  UNIT STRING: "nM"
  ASSAY RESULT: 6
- SMI: "Cc1cc2ncccc2cc1C1CCN(S(=O)(=O)c2c(Cl)nc3sccn23)CC1"
  UNIT STRING: "nM"
  ASSAY RESULT: 619
- SMI: "Cn1ncc(S(=O)(=O)N2CCC(F)(c3cn4ncnc4cc3F)CC2)c1C(F)F"
  UNIT STRING: "nM"
  ASSAY RESULT: 1260

Q. So what does the record say about IC50 for `Cc1cc2ccnn2cc1C1CCN(S(=O)(=O)c2cnn(C)c2C#N)CC1` ?
A. 303
